Tested on: 409B2 hiPSC (iCRISPR Cas9, FRMD7 editing)
procedureSummary: NHEJ-attributed indel frequency relative to solvent control (fold (ratio to mock)); higher = more NHEJ outcomes
experimentalConditions: 5 nM
Where a name gives a salt, the structure may show the parent alone.
measurementType: NHEJ-attributed indel frequency

- compound: "CC[C@]1(O)C[C@@H]2CN(CCc3c([nH]c4ccccc34)[C@@](C(=O)OC)(c3cc4c(cc3OC)N(C)[C@H]3[C@@](O)(C(=O)OC)[C@H](OC(C)=O)[C@]5(CC)C=CCN6CC[C@]43[C@@H]65)C2)C1 [Vinblastine sulfate] (in DMSO)"
  measurementType: "NHEJ-attributed indel frequency"
  observedMeasurement: 0.958
- compound: "CC[N+](CC)(CC)CC [Tetraethylammonium chloride] (in EtOH)"
  measurementType: "NHEJ-attributed indel frequency"
  observedMeasurement: 0.997
- compound: "CC[C@@]1(O)C(=O)OCc2c1cc1n(c2=O)Cc2cc3c(CN(C)C)c(O)ccc3nc2-1 [Topotecan] (in DMSO)"
  measurementType: "NHEJ-attributed indel frequency"
  observedMeasurement: 0.936
- compound: "CC[C@]1(O)C[C@@H]2CN(CCc3c([nH]c4ccccc34)[C@@](C(=O)OC)(c3cc4c(cc3OC)N(C)[C@H]3[C@@](O)(C(=O)OC)[C@H](OC(C)=O)[C@]5(CC)C=CCN6CC[C@]43[C@@H]65)C2)C1 [vinblastine] (in DMSO)"
  measurementType: "NHEJ-attributed indel frequency"
  observedMeasurement: 0.982
- compound: "Cc1ccc(C(=O)N(CCCN)[C@@H](c2nc3cc(Cl)ccc3c(=O)n2Cc2ccccc2)C(C)C)cc1 (in DMSO)"
  measurementType: "NHEJ-attributed indel frequency"
  observedMeasurement: 1.07

----------
Tested on: 409B2 hiPSC (iCRISPR Cas9, FRMD7 editing)
procedureSummary: cell survival relative to solvent control (fold (ratio to mock)); higher = more surviving cells
experimentalConditions: 200 nM
Where a name gives a salt, the structure may show the parent alone.

- compound: "CCCCCCCCCCCCCC(=O)O [Myristic Acid] (in DMSO)"
  cell survival: 1.25
- compound: "O=C(c1cc(Cc2n[nH]c(=O)c3ccccc23)ccc1F)N1CCN(C(=O)C2CC2)CC1 (in DMSO)"
  cell survival: 0.395
- compound: "CC(O)C(=O)O (configuration not stated) [lactate] (in H2O)"
  cell survival: 1.15
- compound: "O=C1NC(=O)[C@@H](c2cn3c4c(cccc24)CCC3)[C@@H]1c1c[nH]c2ccccc12 [Tivantinib (ARQ 197)] (in DMSO)"
  cell survival: 0.979
- compound: "Nc1ccn([C@@H]2O[C@H](CO)[C@@H](O)[C@@H]2O)c(=O)n1 [Cytarabine hydrochloride] (in DMSO)"
  cell survival: 0.467
- compound: "CNCc1ccc(-c2[nH]c3cc(F)cc4c3c2CCNC4=O)cc1 [Rucaparib (free base)] (in DMSO)"
  cell survival: 0.487
- compound: "CC1(C)S[C@@H]2[C@H](NC(=O)COc3ccccc3)C(=O)N2[C@H]1C(=O)O [Penicillin V potassium salt] (in DMSO)"
  cell survival: 0.876

----------
This section presents compounds with their documented MMEJ-attributed deletion frequency values.
Tested on: 409B2 hiPSC (iCRISPR Cas9, FRMD7 editing)
procedureSummary: MMEJ-attributed deletion frequency relative to solvent control (fold (ratio to mock)); higher = more MMEJ outcomes
experimentalConditions: 20 nM

- compound: "C1CCN2C[C@@H]3C[C@@H](CN4CCCC[C@@H]34)[C@H]2C1 [Sparteine] (in DMSO)"
  MMEJ-attributed deletion frequency: 0.908
- compound: "C=CC[C@]1(O)CC[C@H]2[C@@H]3CCC4=CC(=O)CCC4=C3C=C[C@@]21C [Altrenogest] (in DMSO)"
  MMEJ-attributed deletion frequency: 1
- compound: "CC[C@]1(O)C[C@@H]2CN(CCc3c([nH]c4ccccc34)[C@@](C(=O)OC)(c3cc4c(cc3OC)N(C)[C@H]3[C@@](O)(C(=O)OC)[C@H](OC(C)=O)[C@]5(CC)C=CCN6CC[C@]43[C@@H]65)C2)C1 [vinblastine] (in DMSO)"
  MMEJ-attributed deletion frequency: 0.674
- compound: "CS(=O)(=O)N1CCN(Cc2cc3nc(-c4cccc5[nH]ncc45)nc(N4CCOCC4)c3s2)CC1 [GDC-0941] (in DMSO)"
  MMEJ-attributed deletion frequency: 1.02
- compound: "CCCCCCCCCCCCCC(=O)O [Myristic Acid] (in DMSO)"
  MMEJ-attributed deletion frequency: 0.977
- compound: "CC(C)(c1ccc(O)cc1)c1ccc(O)cc1 [Bisphenol A] (in DMSO)"
  MMEJ-attributed deletion frequency: 1.02
